Catalogue of Inhibition values
- Tested on: Mycobacterium tuberculosis
- assay_procedure: Antimycobacterial activity against INH-resistant Mycobacterium tuberculosis by agar dilution method above 6.25 ug/ml
- Type: functional
Write the value in % as a bare number.

Here are 3 compounds together with their reported answers.
COc1cc(C2=NN(C(=O)Cc3ccccc3)C(Cc3ccccc3)C2)c(C)cc1OCC(=O)O (centres undefined): 34
COc1cc(C2=NN(C(=O)c3ccccc3)C3CCCC23)c(C)cc1OCC(=O)O (centres undefined): 42
COc1cc(C2=NN(C(=O)COc3ccc4ccccc4c3)C3CCCC23)c(C)cc1OCC(=O)O (centres undefined): 94

Qu. Consider the compound shown here: COc1cc(C2=NN(C(=O)COc3cccc4ccccc34)C(c3ccc(O)cc3)C2)c(C)cc1OCC(=O)O (centres undefined) What is its recorded Inhibition?
Ans. 58

Qu. Which Inhibition value is on record for COc1cc(C2=NN(C(=O)c3ccc([N+](=O)[O-])cc3)C(Cc3ccccc3)C2)c(C)cc1OCC(=O)O (centres undefined) ?
Ans. 50

Qu. Reported Inhibition, compound COc1cc(C2=NN(C(=O)c3ccc([N+](=O)[O-])cc3)C3CCCC23)c(C)cc1OCC(=O)O (centres undefined) : ____
Ans. 30

Qu. May I ask what Inhibition has been recorded for COc1cc(C2=NN(C(=O)COc3cccc4ccccc34)C3CCCC23)c(C)cc1OCC(=O)O (centres undefined) ?
Ans. 50

Qu. Recorded Inhibition of COc1cc(C2=NN(C(=O)c3ccc([N+](=O)[O-])cc3)C(c3ccc(O)cc3)C2)c(C)cc1OCC(=O)O (centres undefined) , please.
Ans. 70

Qu. Reported Inhibition, compound COc1cc(C2=NN(C(=O)c3ccccc3)C(Cc3ccccc3)C2)c(C)cc1OCC(=O)O (centres undefined) : ____
Ans. 18

Qu. Please report the recorded Inhibition for COc1cc(C2=NN(C(=O)COc3cccc4ccccc34)C(Cc3ccccc3)C2)c(C)cc1OCC(=O)O (centres undefined) .
Ans. 20

Qu. Field request: Inhibition | item: COc1cc(C2=NN(C(=O)Cc3ccccc3)C3CCCC23)c(C)cc1OCC(=O)O (centres undefined)
Ans. 24

----------
// reported Inhibition for each item listed
- System: Mycobacterium tuberculosis
- assay_procedure: Antimycobacterial activity against INH-resistant Mycobacterium tuberculosis by agar dilution method above 6.25 ug/ml
- Format: functional
Could you give me the number in %? Just the number is fine.

COc1cc(C2=NN(C(=O)COc3ccccc3)C3CCCC23)c(C)cc1OCC(=O)O (stereo not drawn): 85
COc1cc(C2=NN(C(=O)Cc3ccccc3)C(c3ccc(O)cc3)C2)c(C)cc1OCC(=O)O (stereo not drawn): 22

Moving on to the next compound.
Qu. Sample COc1cc(C2=NN(C(=O)c3ccccc3)C(c3ccc(O)cc3)C2)c(C)cc1OCC(=O)O (stereo not drawn) — what was its Inhibition?
Ans. 72

Taken from ChEMBL document CHEMBL1146905.
